Study system: full-length human Tim3 on cells (CHO-K1 stably transfected with plasmid 15312_hTIM3-fl_pUC_Neo) (human, UniProt Q8TDQ0 22-301)
Protocol: cell-based or functional assay
Measure name: IFN-gamma release in MLR at 1 µg/ml antibody, % of rec hu IL-2 (20 EU/ml) = 100% (%)
Just the number in %, nothing appended.

Input Tim3_0016 (antibody, V domains shown) VH: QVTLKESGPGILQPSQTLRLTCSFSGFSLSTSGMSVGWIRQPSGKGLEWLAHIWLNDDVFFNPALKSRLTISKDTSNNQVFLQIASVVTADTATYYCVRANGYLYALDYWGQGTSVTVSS VL: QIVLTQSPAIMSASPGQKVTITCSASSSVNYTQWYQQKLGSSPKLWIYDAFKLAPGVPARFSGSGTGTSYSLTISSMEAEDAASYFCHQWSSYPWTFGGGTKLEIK . Output IFN-gamma release in MLR at 1 µg/ml antibody, % of rec hu IL-2 (20 EU/ml) = 100%: 7
